A collection of compounds and their measured CC50 at 48 h
Test: In vitro cytotoxicity assay in HepG2 cells, CCK-8 method
Type: cell-based
Details: human

# compound, CC50 at 48 h
records = [
    ("Cc1c[nH]c(-c2ccc(O[C@H]3CCC[C@H](C(=O)O)C3)c(C)n2)c1COC(=O)N(C)C1CCCC1 (racemic)", "> 200 µM"),
    ("Cc1nc(-c2cnnc(COC(=O)N(C)C3CCCC3)c2)ccc1O[C@H]1CCC[C@H](C(=O)O)C1 (racemic)", "> 200 µM"),
    ("Cc1nc(-c2noc(C)c2COC(=O)N(C)C2CCCC2)ccc1O[C@H]1CCC[C@H](C(=O)O)C1 (racemic)", "> 200 µM"),
    ("Cc1nsc(-c2ccc(O[C@H]3CCC[C@H](C(=O)O)C3)cc2)c1COC(=O)N(C)C1CCCC1 (racemic)", "> 200 µM"),
]

* * *

Assay: In vitro metabolic stability, human liver microsomes
Format: in vitro ADME
Conditions: 1 mg/mL liver microsome protein, 37° C., read-out: Metabolism in human liver microsome T½ min
Method: The in vitro metabolic stability of the compounds disclosed herein was determined through incubation of liver microsomes of various species. A proper amount of test compound was added into a liver microsome reaction system (1 mg/mL liver microsome protein, 25 U/mL glucose-6 phosphate dehydrogenase, 1 mM NADP, 6 mM D-glucose 6-phosphate and 5 mM MgCl2), and then the mixture was incubated in a water bath kettle at 37° C. to start reaction. […]
readout.kind: half-life

# compound, reading
records = [
    ("CN(C(=O)OCc1c(-c2ccc(O[C@H]3CCC[C@H](C(=O)O)C3)c(F)c2)cnn1C)C1CCCC1 (racemic)", "> 30 min"),
    ("Cc1nsc(-c2ccc(O[C@H]3CCC[C@H](C(=O)O)C3)cc2)c1COC(=O)N(C)C1CCCC1 (racemic)", "> 30 min"),
    ("Cc1nc(-c2onc(C)c2COC(=O)N(C)C2CCCC2)ccc1O[C@H]1CCC[C@H](C(=O)O)C1 (racemic)", "145 min"),
    ("CN(C(=O)OCc1c(-c2ccc(O[C@H]3CCC[C@H](C(=O)O)C3)c(F)n2)cnn1C)C1CCCC1 (racemic)", "> 30 min"),
]

* * *

Tested on: HepG2 cells
Test: In vitro cytotoxicity assay in HepG2 cells, CCK-8 method
Format: cell-based
Conditions: 48 h
readout.kind: CC50

# compound, readout.kind, reading
rows = [
    ("CN(C(=O)OCc1c(-c2ccc(O[C@H]3CCC[C@H](C(=O)O)C3)cn2)ncn1C)C1CCCC1 (racemic)", "CC50", "> 200 µM"),
]

* * *

Assay: In vitro metabolic stability, rat liver microsomes
Type: in vitro ADME
Details: 1 mg/mL liver microsome protein, 37° C., read-out: Metabolism in rat liver microsome T½ min

# compound, bound.operator, half-life (min)
records = [
    ("Cc1noc(-c2ccc(O[C@H]3CCC[C@H](C(=O)O)C3)cc2)c1COC(=O)N(C)C1CCCC1 (racemic)", "=", 13.1),
    ("CN(C(=O)OCc1c(-c2ccc(O[C@H]3CCC[C@H](C(=O)O)C3)c(C(F)F)n2)cnn1C)C1CCCC1 (racemic)", "=", 44.9),
    ("Cc1nc(-c2onc(C)c2COC(=O)N(C)C2CCCC2)ccc1O[C@H]1CCC[C@H](C(=O)O)C1 (racemic)", "=", 28.4),
    ("Cc1nsc(-c2ccc(O[C@H]3CCC[C@H](C(=O)O)C3)cc2)c1COC(=O)N(C)C1CCCC1 (racemic)", "<", 30),
    ("CN(C(=O)OCc1c(-c2ccc(O[C@H]3CCC[C@H](C(=O)O)C3)cc2)cnn1C)C1CCCC1 (racemic)", ">", 30),
    ("CN(C(=O)OCc1c(-c2ccc(O[C@H]3CCC[C@H](C(=O)O)C3)c(CF)n2)cnn1C)C1CCCC1 (racemic)", "=", 57.5),
    ("CN(C(=O)OCc1ocnc1-c1ccc(O[C@H]2CCC[C@H](C(=O)O)C2)cn1)C1CCCC1 (racemic)", ">", 30),
    ("CN(C(=O)OCc1ocnc1-c1ccc(O[C@H]2CCC[C@H](C(=O)O)C2)c(F)c1)C1CCCC1 (racemic)", ">", 30),
]

* * *

Biological target: hLPAR1 (human lysophosphatidic acid receptor 1) (Homo sapiens)
Sequence (Q92633 whole entry): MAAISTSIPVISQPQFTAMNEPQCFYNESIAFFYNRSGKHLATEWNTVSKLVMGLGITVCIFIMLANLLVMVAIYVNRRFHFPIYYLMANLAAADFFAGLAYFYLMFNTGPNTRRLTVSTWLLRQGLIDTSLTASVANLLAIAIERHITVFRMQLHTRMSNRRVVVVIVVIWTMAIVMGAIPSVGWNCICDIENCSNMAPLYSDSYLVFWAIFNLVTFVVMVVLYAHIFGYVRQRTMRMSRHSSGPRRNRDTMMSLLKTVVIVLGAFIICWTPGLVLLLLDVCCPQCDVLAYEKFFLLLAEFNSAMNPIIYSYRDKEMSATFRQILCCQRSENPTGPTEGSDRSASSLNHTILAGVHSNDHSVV
Test: FLIPR assay of intracellular calcium increase induced by activation of hLPAR1 expressed in CHO-K1 cells
Type: cell-based
Conditions: CHO-K1 cells expressing hLPAR1, agonist oleoyl-L-α-lysophosphatidic acid 1 μM; read-out: LPAR1 IC50
Examples of molecules with documented IC50 follow.
readout.kind: IC50

# molecule, tested.on, reading
records = [
    ("Cc1nc(-c2c(COC(=O)N(C)C3CCCC3)n(C)[nH]c2=O)ccc1O[C@H]1CCC[C@H](C(=O)O)C1 (racemic)", "hLPAR1 (human lysophosphatidic acid receptor 1) (Homo sapiens)", "300 to 10000 nM"),
    ("CN(C(=O)OCc1c(-c2ccc(O[C@H]3CCC[C@H](C(=O)O)C3)cn2)ncn1C)C1CCCC1 (racemic)", "hLPAR1 (human lysophosphatidic acid receptor 1) (Homo sapiens)", "300 to 10000 nM"),
    ("CN(C(=O)OCc1c(-c2cnc(O[C@H]3CCC[C@H](C(=O)O)C3)c(N)n2)cnn1C)C1CCCC1 (racemic)", "hLPAR1 (human lysophosphatidic acid receptor 1) (Homo sapiens)", "300 to 10000 nM"),
    ("CN(C(=O)OCc1c(-c2ccc(O[C@H]3CCC[C@H](C(=O)O)C3)c(Cl)n2)cnn1C)C1CCCC1 (racemic)", "hLPAR1 (human lysophosphatidic acid receptor 1) (Homo sapiens)", "< 50 nM"),
    ("CN(C(=O)OCc1cncnc1-c1ccc(O[C@H]2CCC[C@H](C(=O)O)C2)cc1)C1CCCC1 (racemic)", "hLPAR1 (human lysophosphatidic acid receptor 1) (Homo sapiens)", "300 to 10000 nM"),
    ("CN(C(=O)OCc1nocc1-c1ccc(O[C@H]2CCC[C@H](C(=O)O)C2)cc1)C1CCCC1 (racemic)", "hLPAR1 (human lysophosphatidic acid receptor 1) (Homo sapiens)", "300 to 10000 nM"),
    ("Cc1nc(-c2onc(C)c2COC(=O)N(C)C2CCCC2)ccc1O[C@H]1CCC[C@H](C(=O)O)C1 (racemic)", "hLPAR1 (human lysophosphatidic acid receptor 1) (Homo sapiens)", "< 50 nM"),
    ("CN(Cc1ccccc1)C(=O)OCc1nc2cc(O[C@H]3CCC[C@H](C(=O)O)C3)ccc2n1C (racemic)", "hLPAR1 (human lysophosphatidic acid receptor 1) (Homo sapiens)", "300 to 10000 nM"),
    ("Cc1c[nH]c(-c2ccc(O[C@H]3CCC[C@H](C(=O)O)C3)c(C)n2)c1COC(=O)N(C)C1CCCC1 (racemic)", "hLPAR1 (human lysophosphatidic acid receptor 1) (Homo sapiens)", "< 50 nM"),
    ("Cc1n[nH]c(-c2ccc(O[C@H]3CCC[C@H](C(=O)O)C3)cc2)c1COC(=O)N(C)C1CCCC1 (racemic)", "hLPAR1 (human lysophosphatidic acid receptor 1) (Homo sapiens)", "< 50 nM"),
    ("Cc1nc(-c2nsc(C)c2COC(=O)N(C)C2CCCC2)ccc1O[C@H]1CCC[C@H](C(=O)O)C1 (racemic)", "hLPAR1 (human lysophosphatidic acid receptor 1) (Homo sapiens)", "< 50 nM"),
    ("Cc1nsc(-c2ccc(O[C@H]3CCC[C@H](C(=O)O)C3)cn2)c1COC(=O)N(C)C1CCCC1 (racemic)", "hLPAR1 (human lysophosphatidic acid receptor 1) (Homo sapiens)", "50 to 300 nM"),
    ("CN(C(=O)OCc1c(-c2ccc(O[C@H]3CCC[C@H](C(=O)O)C3)c(N3CC(O)C3)n2)cnn1C)C1CCC1 (racemic)", "hLPAR1 (human lysophosphatidic acid receptor 1) (Homo sapiens)", "300 to 10000 nM"),
    ("Cc1nc(-c2snc(C)c2COC(=O)N(C)C2CCCC2)ccc1O[C@H]1CCC[C@H](C(=O)O)C1 (racemic)", "hLPAR1 (human lysophosphatidic acid receptor 1) (Homo sapiens)", "< 50 nM"),
    ("Cc1snc(-c2ccc(O[C@H]3CCC[C@H](C(=O)O)C3)cn2)c1COC(=O)N(C)C1CCCC1 (racemic)", "hLPAR1 (human lysophosphatidic acid receptor 1) (Homo sapiens)", "50 to 300 nM"),
    ("Cc1nc(-c2onc(C)c2COC(=O)N(C)C2CCCC2)ncc1O[C@H]1CCC[C@H](C(=O)O)C1 (racemic)", "hLPAR1 (human lysophosphatidic acid receptor 1) (Homo sapiens)", "< 50 nM"),
    ("Cc1noc(-c2ccc(O[C@H]3CCC[C@H](C(=O)O)C3)c(F)c2)c1COC(=O)N(C)C1CCCC1 (racemic)", "hLPAR1 (human lysophosphatidic acid receptor 1) (Homo sapiens)", "< 50 nM"),
]
